Kd reference
- assayedSystem: T1, human IL-25 expressed with a C-terminal myc-myc-hexahistidine tag (human)
- T1 construct: also called human IL-25-MMH; hIL-25-MMH
- T1 chain: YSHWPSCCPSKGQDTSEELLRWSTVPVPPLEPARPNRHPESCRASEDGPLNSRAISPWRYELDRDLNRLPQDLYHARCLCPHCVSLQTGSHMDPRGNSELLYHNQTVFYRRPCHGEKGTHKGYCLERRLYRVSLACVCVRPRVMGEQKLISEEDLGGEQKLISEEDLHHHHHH
- assayDetails: SPR Biacore, captured mAb, 37°C
Number only, in nM; omit the unit.

As a guide, the following entries are already answered.
1. H4H10861P (antibody, human IgG4, V domains shown) VH: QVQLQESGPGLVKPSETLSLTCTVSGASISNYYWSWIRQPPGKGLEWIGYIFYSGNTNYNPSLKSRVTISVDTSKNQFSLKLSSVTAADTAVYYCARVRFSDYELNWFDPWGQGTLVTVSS VL: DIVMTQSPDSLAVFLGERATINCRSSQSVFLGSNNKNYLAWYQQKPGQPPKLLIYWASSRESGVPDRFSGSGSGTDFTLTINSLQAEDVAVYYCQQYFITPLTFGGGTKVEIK
0.0268
2. H4H10876P (antibody, human IgG4, V domains shown) VH: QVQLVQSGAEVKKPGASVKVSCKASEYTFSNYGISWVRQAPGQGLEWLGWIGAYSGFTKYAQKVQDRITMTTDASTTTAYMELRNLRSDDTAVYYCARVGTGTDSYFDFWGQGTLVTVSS VL: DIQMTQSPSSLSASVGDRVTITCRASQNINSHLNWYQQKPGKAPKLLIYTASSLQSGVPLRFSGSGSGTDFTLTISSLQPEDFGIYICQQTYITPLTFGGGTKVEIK
0.0944

// recorded Kd for H4H10863P (antibody, human IgG4, V domains shown) VH: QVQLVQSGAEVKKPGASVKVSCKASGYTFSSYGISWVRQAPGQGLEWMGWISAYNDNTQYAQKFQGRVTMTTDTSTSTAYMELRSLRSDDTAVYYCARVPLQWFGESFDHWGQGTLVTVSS VL: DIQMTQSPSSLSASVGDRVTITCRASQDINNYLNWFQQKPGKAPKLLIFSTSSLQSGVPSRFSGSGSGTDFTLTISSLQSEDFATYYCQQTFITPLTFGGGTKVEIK : 0.128
